Biological target: RyR2 in cardiac SR membranes decorated with D-32-FKBP (porcine (endogenous in porcine heart) | human)
Experiment: FRET or BRET
Where no end group is shown, it is not given here. QXL520 = dark acceptor
ENDPOINT_LABEL: Kd
Reply with the number and its unit after it.

Returns the measured Kd for the input binder. Input: QXL520-GFCPDHKAAMVLFLDRVYGIEVQDFLLHLLEVGFLP [acceptor-labeled DPc10 (QXL520 at the N-terminus)]
13.1 µM
